biological target: Neurotensin receptor type 1 (Homo sapiens) (UniProt P30989); experiment: neurotensin receptor 1 activation by analogs – imaging, image-based, set 4, SAR follow-up (AID 602426); settings: NTR1-U2OS beta-arrestin-GFP spot imaging
Sequence (P30989 whole entry, looked up): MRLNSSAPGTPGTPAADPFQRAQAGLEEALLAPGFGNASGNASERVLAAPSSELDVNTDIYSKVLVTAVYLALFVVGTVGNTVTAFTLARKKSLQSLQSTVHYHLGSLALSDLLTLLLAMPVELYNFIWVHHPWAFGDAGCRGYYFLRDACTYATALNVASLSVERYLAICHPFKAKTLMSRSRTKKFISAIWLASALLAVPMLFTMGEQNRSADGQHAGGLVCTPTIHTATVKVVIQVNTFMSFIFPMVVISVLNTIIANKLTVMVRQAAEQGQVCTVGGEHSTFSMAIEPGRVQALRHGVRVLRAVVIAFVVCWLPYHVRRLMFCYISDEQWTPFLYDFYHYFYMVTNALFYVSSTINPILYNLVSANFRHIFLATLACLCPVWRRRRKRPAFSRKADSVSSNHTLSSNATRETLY
PROPERTY_NAME: EC50

Query block: Specify EC50 for `COc1cccc(OC)c1-c1cc(C(=O)N[C@@H](CC(C)C)C(=O)O)nn1-c1ccnc2cc(Cl)ccc12` and stop.
Result block: 925 nM
